assay-system: AP (Escherichia coli alkaline phosphatase) (Escherichia coli, UniProt P00634, D123A)
Sequence (P00634 23-471, stated change not applied): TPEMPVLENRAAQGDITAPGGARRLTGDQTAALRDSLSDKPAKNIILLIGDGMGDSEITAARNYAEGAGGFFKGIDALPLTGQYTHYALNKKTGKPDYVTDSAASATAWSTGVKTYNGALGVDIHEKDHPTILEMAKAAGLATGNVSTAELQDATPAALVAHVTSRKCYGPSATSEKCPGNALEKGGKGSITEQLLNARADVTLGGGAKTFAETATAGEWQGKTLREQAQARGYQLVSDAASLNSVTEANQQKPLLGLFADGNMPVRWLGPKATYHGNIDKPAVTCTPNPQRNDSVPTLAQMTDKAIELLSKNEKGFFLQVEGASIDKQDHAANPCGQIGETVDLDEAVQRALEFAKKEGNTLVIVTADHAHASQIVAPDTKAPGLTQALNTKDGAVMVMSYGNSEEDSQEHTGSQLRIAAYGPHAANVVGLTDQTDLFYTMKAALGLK
test-details: inhibition of methyl p-nitrophenyl phosphate hydrolysis, […] nm
readout-label: Ki

> print(dat)
                              compound                              assay.system  readout.label  test.value
1   [O]=[V]([OH])([OH])[OH] [vanadate]  AP (Escherichia coli alkaline phosphatase) (Escherichia coli, UniProt P00634, D123A)             Ki       13 µM
2  [O]=[W](=[O])([OH])[OH] [tungstate]  AP (Escherichia coli alkaline phosphatase) (Escherichia coli, UniProt P00634, D123A)             Ki       99 µM

---

Attribute: Ki
assay-system: AP (Escherichia coli alkaline phosphatase) (Escherichia coli, UniProt P00634, K350A)
Sequence (P00634 23-471 K350A): as the sequence (P00634 23-471, stated change not applied) above, with K328A counted along it
test-details: inhibition of methyl p-nitrophenyl phosphate hydrolysis, […] nm
readout-label: Ki (µM)

> print(dat)
                              compound  readout.label  test.value
1   [O]=[V]([OH])([OH])[OH] [vanadate]             Ki         9.4
2  [O]=[W](=[O])([OH])[OH] [tungstate]             Ki          44
